System: PXR homodimer (NR concentration 270 nM)
Experiment description: PBM binding z-score (relative to random genomic background probes); higher = stronger binding; sequences stand for … in GC…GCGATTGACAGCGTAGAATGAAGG
Recorded metric: PBM binding z-score
Respond numerically, and do not add a unit to the figure.

The examples below pair each entry with its known result.
Looking for the measured PBM binding z-score of "CGAACTACGTCACCAGGACAGTGAAGAGGTTGGA" , can you help?
-0.301

And the next one, "TGAATGAAGTTAAAGATCAGGGAACGTGGCGTCG" ?
-0.811

And the next one, "TGTCAGAGTTCAAAGGTAACGTAAGTATCCACAC" ?
5.44

And the next one, "TCGAGTAGGTTACGGGGGCAATCAGGGATGAAGA" ?
0.755

More entries:
Looking for the measured PBM binding z-score of "CAAACTAGGTCAAAGGTCAACGTCGAGCCAACCA" , can you help?
1.82

And the next one, "CATACAGGGACAGCTAGGCCAGAGTAGGGACGGC" ?
-0.605

And the next one, "CTATGGAGGTTAAGGGGGTCATTCAGTTTGAAAG" ?
12.7

And the next one, "TCGAGTAGGTTACGGCGGCATTCAGGGATGAAGA" ?
-0.885

And the next one, "CTATGTAGGTTAAGGGGGTCATTCCGTTTGAAAG" ?
4.83

And the next one, "CGAACTAGGTCCAAGGACAGTGAAAGGCGACGTA" ?
-0.337

And the next one, "ATCGAAAGGTCGAAGGTGACTATACCCACCCGAA" ?
0.106

And the next one, "ATCGAAAGGTCGAAGGTCAGTATACCCACCCGAA" ?
0.812

And the next one, "TCGAGTAGGTTACGGGAGCATTCAGGGATGAAGA" ?
-0.797

And the next one, "CGAACTCGGTCACCAGGACAGTGAAGAGGTTGGA" ?
-0.302

And the next one, "CCGCGTAGGTTACGAGGGGGCATTCAGTGCGAAT" ?
4.05

And the next one, "ATCAAAAGGTCGAAGGTGAGTATACCCACCCGAA" ?
-0.118

And the next one, "CCGAGTAAGTTACGAGGGGGCATTCAGTGCGAAT" ?
4.68

And the next one, "CTAACTAGGTCACGAAAGGTCAAAGTCGAATGAC" ?
3.14

And the next one, "CCCGCTAGGTCATGGTCAGCTAATCTACAGTATG" ?
-0.038

And the next one, "CTTACTGGGCCAAAGGTCATTGATTCCAATGCTC" ?
2.72

And the next one, "ATATGTAGGTTAGGGTCGTTCAGAAAGTAGGGAA" ?
1.67

And the next one, "CGTCGGAGGACAACAGGAGGTCAGAGCTGCCAGA" ?
0.93

And the next one, "TCGAGTAGGTTACGGGGGCAGTCAGGGATGAAGA" ?
1.2

And the next one, "CCGAGTAGGTTACGAGGGGGCATTCATTGCGAAT" ?
0.535

----------
System: PPARg:RXRa DBDmut IVT, anti-RXR (DBD mutation: RXRa K156A/R161A, NR concentration 270 nM, RXRa partner concentration 90 nM)
Experiment description: PBM binding z-score (relative to random genomic background probes); higher = stronger binding; sequences stand for … in GC…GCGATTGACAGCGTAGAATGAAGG
Lab note: class by PBM binding z-score, see A = under 2, B = from 2 up to 6, C = 6 and over

Sample answers from the record:
Where would "ATATGTGGGTTATCGGGTCATTCAGTTTGCGCAT" land among the classes by reported PBM binding z-score?
C

And the next one, "CGAACTAGGTCAAAGAACAGTGAAAGGCGACGTA" ?
C

And the next one, "ATATGTAGGTGAAGGGTCATTCAGGTTGGTTCGC" ?
C

And the next one, "ATATGTAGGTTACGGTCATTCAGAAAGTAGGGAA" ?
C

And the next one, "GCTAGTGGGTCAGTAAAAGGTCACACACCGGTCG" ?
C

And the next one, "TTACCAAGGTGAAGGTCGTGGATCCCTCTGTAGA" ?
B

And the next one, "ACCAGCAGGCCAAGGGTCACTCAAGATTAGTCCG" ?
A

And the next one, "ATATGTATGTTAGGGTCATTCAGAAAGTAGGGAA" ?
B

And the next one, "CGTCCAAGGTCAGCAGGTCACTGAAAGCGACGTG" ?
B

And the next one, "AATACAGGATCACTAGGCCAGAGTAGGTACGAAT" ?
A

Now, please, on to the next sequence.
Where would "ATCGAAGGGTCGAAGGTGAGTATACCCACCCGAA" land among the classes by reported PBM binding z-score?
A
